# assay-system: Nuclear receptor coactivator 1 (Homo sapiens)
# assay-comment: SRC1 coactivator transcriptional activity inhibitors, confirmation, cell-based, luminescence, quadruplicate (AID 588820);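 note: 0% = DMSO wells and 100% = gossypol 36 µM treated wells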
# cond: HEK293 GAL4-SRC1 luciferase reporter, at 3.6 µM, active compounds read high
assay-endpoint: inhibition (%)

INSERT INTO measurements (molecule, unit_annotation, recorded_result) VALUES
  ('Cc1ccc(/C=C2\SC(=S)N(CCCC(=O)NNC(=O)c3ccccc3O)C2=O)cc1', '%', 74.7),
  ('O=C(NNC(=O)c1ccccc1O)c1ccc(Cl)c(S(=O)(=O)N2CCc3ccccc32)c1', '%', 8.03),
  ('O=C(NC1CCCC1)C(c1ccccc1)N(Cc1ccco1)C(=O)Cc1cccs1 (stereo unspecified)', '%', 17.7),
  ('Cc1cccc(CNc2ncnc3ccc(-c4ccoc4)cc23)c1', '%', 45.1),
  ('O=C(NCc1ccccc1)c1cc(S(=O)(=O)N2CCCCC2)ccc1N1CCOCC1', '%', -1.88),
  ('COC1=CC(=O)c2nc(Cl)ccc2C1=O', '%', -9.24);

====

# assay-system: Nuclear receptor coactivator 3 (Homo sapiens)
# assay-comment: SRC3 coactivator transcriptional activity inhibitors, confirmation, cell-based, luminescence, quadruplicate (AID 588792);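 note: 0% = DMSO treated cells and 100% = gossypol at 36 µM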
# cond: HEK293 GAL4-SRC3 luciferase reporter, at 3.6 µM
Calls of active or inactive are those of the source.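 Rule for the calls: active = mean inhibition over 43.08%, the solvent-only control mean plus 3 SD; inactive = the rest.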
Outcomes: Y = active, N = inactive

INSERT INTO assay_data (compound, assigned_class) VALUES
  ('O=C1c2cccc(NCCNCCO)c2C(=O)c2cccc(NCCNCCO)c21', 'N'),
  ('CCOC(=O)c1cc2c(=Cc3ccc(N(C)C)cc3)c3ccccc3n2[n+]1C', 'Y'),
  ('O=S(=O)(Nc1cc(Sc2ncn[nH]2)c(O)c2ccccc12)c1ccccc1', 'N'),
  ('CC(=O)N(Cc1ccc(F)cc1)C1=C(NCc2ccccc2)C(=O)c2ccccc2C1=O', 'N'),
  ('CC(C)(C)c1ccc(/C=C2\SC(=O)N(CCNC(=O)c3cccc(S(=O)(=O)N4CCOCC4)c3)C2=O)cc1', 'N'),
  ('Cc1cc(C)c(S(=O)(=O)/N=C2\C=C(Nc3ccc(C(=O)O)cc3)C(=O)c3ccccc32)c(C)c1', 'N'),
  ('CNC(=O)c1ccc(NC(=O)C2CCN(c3ncnc4sc(C)c(C)c34)CC2)cc1', 'Y'),
  ('CCN(CC)c1ccc2nc3ccccc3[n+](CC)c2c1', 'Y'),
  ('COc1ccc2cc3cc(C(=O)Nc4cc(OC)c(OC)c(OC)c4)oc3nc2c1', 'N'),
  ('COc1ccc(CNC(=O)COC(=O)c2cc(-c3ccc(Cl)s3)nc3ccccc23)cc1', 'N'),
  ('NC(=S)NN=Cc1nccc2ccccc12', 'Y'),
  ('Cc1cc(/C=C2\SC(=S)N(C)C2=O)c(C)n1-c1cccc(O)c1', 'Y'),
  ('CC(=O)Nc1ccc(OCC(O)Cn2c3ccccc3c3ccccc32)c(C)c1 (stereo unspecified)', 'N'),
  ('Cc1ccc2nc(C(F)(F)F)c(C#N)c(N)c2c1', 'Y'),
  ('CC[C@H]1CN2CCc3cc(OC)c(OC)cc3[C@@H]2C[C@@H]1C[C@H]1NCCc2cc(OC)c(OC)cc21', 'Y'),
  ('CCN(CC)S(=O)(=O)c1ccc(/C=C/C(=O)Nc2ccc(F)c(F)c2F)cc1', 'N'),
  ('CN(C)S(=O)(=O)c1cccc(NC(=S)N/N=C/c2cc(Br)ccc2O)c1', 'Y'),
  ('O=C(CNc1cccc2ccccc12)N/N=C/c1ccc[nH]1', 'N'),
  ('CC1OC2CC(=O)OC2C2=C1C(=O)c1c(O)cccc1C2=O (stereo unspecified)', 'Y'),
  ('CC#CC[N+](C)(C)CCCCCCCCCCCC', 'N'),
  ('CCC(=O)NC(c1cccs1)c1ccc2cccnc2c1O (stereo unspecified)', 'N');

====

# assay-comment: VP16 transactivation reporter inhibitors, counter-screen for LRH-1 inverse agonist project, cell-based, luminescence, high throughput (AID 651615)
# cond: Gal4-VP16 luciferase reporter cells, at 3.6 µM, active compounds read high
assay-endpoint: inhibition (%)

INSERT INTO assay_data (molecule, assay_endpoint, recorded_result) VALUES
  ('NC(=O)COc1ccc2c3c(c(=O)oc2c1)CCCCC3', 'inhibition', 0.54),
  ('COC(=O)c1ccc2nc(Nc3nc4c(F)cc(F)cc4s3)sc2c1', 'inhibition', -29.2),
  ('CCN1/C(=C/c2ccc3cc(C)ccc3[n+]2CC)Sc2ccccc21', 'inhibition', 82.7),
  ('CC1CCCC(C)N1C(=O)COC(=O)Cc1ccc(F)cc1 (stereo not drawn)', 'inhibition', 3.23),
  ('Cc1cccc(/C=C(\c2nc3ccccc3[nH]2)S(=O)(=O)c2ccccc2)c1', 'inhibition', 54.1),
  ('Cc1c([N+](=O)[O-])cc(C(=O)Nc2ccc(Cc3ccncc3)cc2)cc1[N+](=O)[O-]', 'inhibition', -0.27),
  ('COc1ccc(N2CCN(C(=O)CSc3nnc(-c4cc5ccccc5cc4O)n3C)CC2)cc1', 'inhibition', 13.6),
  ('Cc1cc(/C=N/n2cnnc2)c(C)n1-c1ccc(OCc2ccc(Cl)cc2Cl)cc1', 'inhibition', 62.3),
  ('COc1ccc(Nc2nc(-c3cccnc3)nc3ccccc23)cn1', 'inhibition', -10.3),
  ('O=C(Nc1c(F)cccc1F)c1cnc(N2CCN(c3ccccn3)CC2)c2ccccc12', 'inhibition', 17.4),
  ('Cn1c(SCC(=O)Nc2ccc(N3CCOCC3)cc2)nnc1-c1ccccc1', 'inhibition', -12.2),
  ('CC(=O)ON=C1C=CC(=C(C#N)c2ccccc2)C=C1', 'inhibition', 20.2),
  ('COc1ccc(-c2c[n+]3c(n2-c2ccc(C)cc2)CCCCC3)cc1', 'inhibition', 73.7),
  ('c1ccc(CCNc2nc(-c3ccccn3)nc3ccccc23)cc1', 'inhibition', 69.1),
  ('NC(=S)NNc1cc(Cl)cc(Cl)c1', 'inhibition', 11.7),
  ('COCC1CCCN(C(=O)c2cc(COc3ccc4ncccc4c3)on2)C1 (stereo not drawn)', 'inhibition', 47.7),
  ('O=C(CN(Cc1ccccc1)C(=O)CCl)c1cccc(Br)c1', 'inhibition', -1.2),
  ('O=C(Nc1cccc(NC(=O)c2ccc([N+](=O)[O-])o2)c1)c1ccco1', 'inhibition', -8.09),
  ('Cc1cccc(NC(=O)COC(=O)CN2C(=O)c3ccccc3C2=O)c1C', 'inhibition', -15),
  ('COc1ccc(CCNC(=O)CN2C(=O)NC3(CCCCC3)C2=O)cc1', 'inhibition', -6.08),
  ('COc1ccc(C2=CC(=O)OC3(CCCCC3)O2)cc1', 'inhibition', 6.01),
  ('Cc1cc(C)nc(-n2nc(C)cc2Nc2ccccc2)n1', 'inhibition', 24),
  ('CCOc1ccc(NC(=O)CSc2nc3cccnc3n2CCOC)cc1', 'inhibition', -10.9);
